Target: T1, CCR7 expressed on CHO-K1 cells (UniProt P32248 25-378)
T1 construct: chemokine receptor CCR7, recombinant, on CHO-K1 cells; source: CHO-K1 cells expressing CCR7 only or co-expressing CXCR4 and CCR7
T1 sequence (looked up): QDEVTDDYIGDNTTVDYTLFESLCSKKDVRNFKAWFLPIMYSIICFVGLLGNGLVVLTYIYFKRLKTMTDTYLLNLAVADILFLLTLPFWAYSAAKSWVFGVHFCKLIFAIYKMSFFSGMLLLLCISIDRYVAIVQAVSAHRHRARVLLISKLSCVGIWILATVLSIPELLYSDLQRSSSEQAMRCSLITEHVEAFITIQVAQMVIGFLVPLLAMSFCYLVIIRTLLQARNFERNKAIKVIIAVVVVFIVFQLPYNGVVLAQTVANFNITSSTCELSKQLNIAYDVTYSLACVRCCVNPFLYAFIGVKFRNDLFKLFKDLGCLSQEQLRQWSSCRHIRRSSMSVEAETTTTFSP
Test: radioligand binding; competition on CHO-K1 cells co-expressing CXCR4 and CCR7; tracer 0.1 nM 125I-CCL19, increasing concentrations of unlabelled competitor; non-specific binding defined with 300 nM competitor
Details: one partner purified
Recorded IC50 values for a group of binders are listed next.

{"binder": "CCL21 (ligand, UniProt O00585 24-134, looked up) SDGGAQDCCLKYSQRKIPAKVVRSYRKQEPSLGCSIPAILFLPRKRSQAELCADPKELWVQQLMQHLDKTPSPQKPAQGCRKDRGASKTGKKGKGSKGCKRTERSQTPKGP", "units_text": "nM", "IC50": 4.2}
{"binder": "CCL19 (ligand, UniProt Q99731 22-98, looked up, also called unlabeled CCL19) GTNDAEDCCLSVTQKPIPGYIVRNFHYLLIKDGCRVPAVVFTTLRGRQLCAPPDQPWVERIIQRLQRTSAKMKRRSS", "units_text": "nM", "IC50": 1.7}

The reported measurements were obtained from paper PMC6930800.
